Measured melting point, listed per entry.

Below are worked cases with known answers.
What value of melting point has been reported for the following compound? COc1ccc(CC(OC)C(=O)O)cc1C(=O)NCc1ccc(C(F)(F)F)cc1 (stereo not drawn)
161 to 163 °C

What value of melting point has been reported for the following compound? CCC[C@@H](Cc1ccc(OC)c(C(=O)NCc2ccc(Oc3ccc(F)cc3)cc2)c1)C(=O)O
126 to 127 °C

What value of melting point has been reported for the following compound? COc1ccc(CC(C)(C)C(=O)O)cc1C(=O)NCc1ccc(C(F)(F)F)cc1
151 to 152 °C

New cases:
What value of melting point has been reported for the following compound? COc1ccc(CC(C)C(=O)O)cc1C(=O)NCc1ccc(C(F)(F)F)cc1 (stereo not drawn)
155 to 156 °C

What value of melting point has been reported for the following compound? CCC(Cc1ccc(OC)c(C(=O)NCc2ccc(-c3ccccc3)cc2)c1)C(=O)O (stereo not drawn)
158.5 to 159.5 °C

* * *

Measured log10 of EC50, listed per entry.
Molecular target: human peroxisome proliferator-activated receptor (PPAR)α (Homo sapiens, UniProt Q07869)
Sequence (Q07869 239-466 limits assumed): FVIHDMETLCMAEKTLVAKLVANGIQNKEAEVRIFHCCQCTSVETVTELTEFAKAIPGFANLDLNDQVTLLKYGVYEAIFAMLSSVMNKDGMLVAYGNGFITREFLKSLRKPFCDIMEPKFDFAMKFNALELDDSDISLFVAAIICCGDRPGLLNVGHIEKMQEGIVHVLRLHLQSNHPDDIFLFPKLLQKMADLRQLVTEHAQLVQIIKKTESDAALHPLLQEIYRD
Assay: Transactivation assay for human PPARα (CHO cells, luciferase reporter)
Type: cell-based
Parameters: expressed in transfected cells; host or cells: CHO cells
# values: log10(EC50), units nM

Below are worked cases with known answers.
What value of log10 of EC50 has been reported for the following compound? COc1ccc(CC(C)C(=O)O)cc1C(=O)NCc1ccc(C(F)(F)F)cc1 (centres unmarked) [Example 30]
2.30

What value of log10 of EC50 has been reported for the following compound? CCC(Cc1ccc(OC)c(C(=O)NCc2ccc(-c3ccccc3)cc2)c1)C(=O)O (centres unmarked) [Example 22]
2.04

What value of log10 of EC50 has been reported for the following compound? COc1ccc(CC(OC)C(=O)O)cc1C(=O)NCc1ccc(C(F)(F)F)cc1 (centres unmarked) [Example 24]
2.26

New cases:
What value of log10 of EC50 has been reported for the following compound? CCC(Cc1ccc(OC)c(C(=O)NCc2ccc(C(F)(F)F)cc2)c1)C(=O)O (centres unmarked) [Example 20]
1.06

What value of log10 of EC50 has been reported for the following compound? CCC(Cc1ccc(OC)c(C(=O)NCc2ccc(Oc3ccccc3)cc2)c1)C(=O)O (centres unmarked) [Example 23]
1.38

* * *

Biological target: human peroxisome proliferator-activated receptor (PPAR)α (Homo sapiens, UniProt Q07869)
Sequence (Q07869 239-466 limits assumed): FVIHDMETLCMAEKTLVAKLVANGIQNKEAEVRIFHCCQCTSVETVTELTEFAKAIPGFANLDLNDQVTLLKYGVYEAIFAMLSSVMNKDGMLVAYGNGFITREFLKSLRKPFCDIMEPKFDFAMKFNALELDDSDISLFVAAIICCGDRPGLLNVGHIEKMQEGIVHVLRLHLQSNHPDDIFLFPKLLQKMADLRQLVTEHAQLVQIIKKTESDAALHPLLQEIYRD
Test: Transactivation assay for human PPARα (CHO cells, luciferase reporter)
Format: cell-based
Parameters: expressed in transfected cells; host or cells: CHO cells
Conditions: Table 17; CHO cells, human PPARα LBD fusion, luciferase after 24 hours; read-out: Transcriptional activity EC50
Excerpt: Transactivation assay for human peroxisome proliferator-activated receptor (PPAR)α […]
quantity: EC50 (µM)
Number only, in µM; omit the unit.

What value of EC50 has been reported for the following molecule? CCCCC/C=C\C/C=C\C=C\[C@@H](O)C/C=C\CCCC(=O)O [(8S) HETE, (8S)-HETE, reference compound]
1.3
